The compounds below each have a reported IC50 tested on Histone deacetylase 7 (Homo sapiens); the values come from various publications.

# COMPOUND, IC50
measured = [
    ("CN(c1ccccc1)S(=O)(=O)c1cccc(/C=C/C(=O)NO)c1", "2.02 µM"),
    ("CN(C)c1cccc(-c2nnc(Sc3ccc(C(=O)NO)cc3)n2C)c1", "1.36 µM"),
    ("Nc1nc2ccc(-c3cn(Cc4ccc(-c5nnc(C(F)F)o5)cn4)nn3)cc2s1", "> 30 µM"),
    ("O=C(/C=C/c1ccc(CNCC23CC4CC(CC(C4)C2)C3)cc1)NO", "> 20 µM"),
    ("COc1cc2cc(c1)C(=O)Nc1ccccc1NC(=O)[C@H](CCCCCC(=O)NO)OC/C=C\\2", "4.3 µM"),
    ("Cn1cnc2c(NC3CCCCC3)nc(Nc3ccc(OCCCCCC(=O)NO)cc3)nc21", "> 100 µM"),
    ("O=C(NO)c1cc(F)c2c(c1)CCN(C1CC3(CCC3)C1)C2", "10 to 100 µM"),
]

Moving on to the next compound.
Task item: Tell me the measured IC50 of O=C(NO)c1cc(F)c2c(c1)CN1CCC[C@@H]1C2 (single isomer, unassigned) , please.
Reply: 1 to 10 µM

====

The molecules below each have a reported IC50 tested on Histone deacetylase 7 (Homo sapiens, UniProt Q8WUI4); the values come from various publications.

Illustrative cases are given below, each with its answer.
# MOLECULE, VAL
data = [
    ("CN(Cc1ccc(/C=C/C(=O)NO)cc1F)CC12CC3CC(CC(C3)C1)C2", "> 50 µM"),
    ("CCNc1nc2ccc(-c3cn(Cc4ccc(-c5nnc(C(F)F)o5)cn4)nn3)cc2[nH]1", "> 30 µM"),
    ("O=C(NO)c1cccc2c1C[C@]1(CCN(Cc3ccc(Cl)c(C(F)(F)F)c3)C1=O)C2", "> 10 µM"),
    ("Nn1c(Sc2ccc(C(=O)NO)cc2)nnc1-c1ccc(OC(F)F)cc1", "1.03 µM"),
]

Moving on to the next molecule.
Task item: Hello, I am looking for reported IC50 with Histone deacetylase 7 (Homo sapiens, UniProt Q8WUI4) for O=C1NCc2ccc(-c3nnn(Cc4ccc(-c5nnc(C(F)F)o5)cn4)n3)cc21 . Could you help?
Reply: > 30 µM

====

The compounds below each have a reported IC50 tested on Histone deacetylase 7 (Homo sapiens, UniProt Q8WUI4); the values come from various publications.

Illustrative cases are given below, each with its answer.
# COMPOUND, IC50
measured = [
    ("O=C(NO)c1ccc(Cc2nnc(-c3ccc(F)cc3F)o2)cc1", "1.51 µM"),
    ("O=C(NO)c1cc(F)c2c(c1)CC1CCCN1C2 (single isomer, unassigned)", "1 to 10 µM"),
    ("O=C(NO)c1ccc(CN2CCC3(CCCCC3)CC2)c(F)c1", "1 to 10 µM"),
    ("COc1ccc(C(=O)N[C@@H](Cc2cscn2)c2nc(Cc3ccc(C(=O)NO)cc3)no2)cc1OC", "3.53 µM"),
    ("Nc1nc2cc(-c3cn(Cc4ccc(-c5nnc(C(F)F)o5)cc4)nn3)ccc2[nH]1", "> 30 µM"),
]

Moving on to the next compound.
Task item: Tell me the measured IC50 of Fc1cccc(F)c1C1(Nc2ncc(-c3nnc(C(F)F)o3)cn2)CC1 , please.
Reply: > 30 µM
